# System: human maximum recommended daily dose, FDA database
# ASSAY: DSSTox (FDAMDD) FDA Maximum (Recommended) Daily Dose Database
# EXPERIMENTAL_CONDITIONS: TherapeuticCategory: anti inflammatory; antifungal; stronger effect = lower value
REPORTED_METRIC: maximum recommended daily dose (mmol/kg-bw/day)
Answers are plain numbers.

## Input Return reported maximum recommended daily dose (mmol/kg-bw/day) for target or system human maximum recommended daily dose, FDA database, item Nc1ccc(C(=O)NCC(=O)O)cc1 .
## Output 0.0515

###

# System: human maximum recommended daily dose, FDA database
# ASSAY: DSSTox (FDAMDD) FDA Maximum (Recommended) Daily Dose Database
# EXPERIMENTAL_CONDITIONS: TherapeuticCategory: antineoplastic; antirheumatic; stronger effect = lower value
REPORTED_METRIC: maximum recommended daily dose (mmol/kg-bw/day)
One number for each entry.

## Input Determine from records and report maximum recommended daily dose (mmol/kg-bw/day) for CN(Cc1cnc2nc(N)nc(N)c2n1)c1ccc(C(=O)N[C@@H](CCC(=O)O)C(=O)O)cc1
## Output 0.0011

###

# Tested on: human maximum recommended daily dose, FDA database
# ASSAY: DSSTox (FDAMDD) FDA Maximum (Recommended) Daily Dose Database
# EXPERIMENTAL_CONDITIONS: TherapeuticCategory: hepatoprotectant; mucolytic; antidote to heavy metal poisoning; stronger effect = lower value
REPORTED_METRIC: maximum recommended daily dose (mmol/kg-bw/day)
One number for each entry.

## Input Determine from records and report maximum recommended daily dose (mmol/kg-bw/day) for CC(S)C(=O)NCC(=O)O (stereo unspecified)
## Output 0.204

###

# Test system: human maximum recommended daily dose, FDA database
# ASSAY: DSSTox (FDAMDD) FDA Maximum (Recommended) Daily Dose Database
# EXPERIMENTAL_CONDITIONS: TherapeuticCategory: antihistaminic; antiallergic; stronger effect = lower value
REPORTED_METRIC: maximum recommended daily dose (mmol/kg-bw/day)
One number for each entry.

## Input Determine from records and report maximum recommended daily dose (mmol/kg-bw/day) for CN(C)CC/C=C1\c2ccccc2COc2ccc(CC(=O)O)cc21
## Output 0.000987

###

# System: human maximum recommended daily dose, FDA database
# ASSAY: DSSTox (FDAMDD) FDA Maximum (Recommended) Daily Dose Database
# EXPERIMENTAL_CONDITIONS: TherapeuticCategory: anesthetic; stronger effect = lower value
Flag rule - maximum recommended daily dose (mmol/kg-bw/day) less than 0.01 flags yes; the remaining entries get no.

The following compounds have reported results that may help.
## Input Lab note: confirm whether the reported maximum recommended daily dose (mmol/kg-bw/day) for this compound is below 0.01, equality not counting. compound: CNC1(c2ccccc2Cl)CCCCC1=O (stereo unspecified)
## Output yes

## Input Lab note: confirm whether the reported maximum recommended daily dose (mmol/kg-bw/day) for this compound is below 0.01, equality not counting. compound: CC(=O)[C@H]1CC[C@H]2[C@@H]3CC[C@H]4C[C@H](O)CC[C@]4(C)[C@H]3C(=O)C[C@]12C
## Output yes

Please find the next compound below.
## Input Lab note: confirm whether the reported maximum recommended daily dose (mmol/kg-bw/day) for this compound is below 0.01, equality not counting. compound: OCC(Br)(Br)Br
## Output no

###

# Test system: human maximum recommended daily dose, FDA database
# ASSAY: DSSTox (FDAMDD) FDA Maximum (Recommended) Daily Dose Database
# EXPERIMENTAL_CONDITIONS: TherapeuticCategory: sedative; hypnotic; stronger effect = lower value
REPORTED_METRIC: maximum recommended daily dose (mmol/kg-bw/day)
Numbers only.

The cases that follow already have their maximum recommended daily dose (mmol/kg-bw/day) on record.
## Input Determine from records and report maximum recommended daily dose (mmol/kg-bw/day) for C#CC1(OC(N)=O)CCCCC1
## Output 0.0999

## Input Determine from records and report maximum recommended daily dose (mmol/kg-bw/day) for OC[C@@H](O)[C@H]1O[C@@H]2O[C@H](C(Cl)(Cl)Cl)O[C@@H]2[C@H]1O
## Output 0.0269

## Input Determine from records and report maximum recommended daily dose (mmol/kg-bw/day) for CN1C(=O)C(O)N=C(c2ccccc2)c2cc(Cl)ccc21 (configuration not stated)
## Output 0.000831

## Input Determine from records and report maximum recommended daily dose (mmol/kg-bw/day) for CCCC(C)C1(CC)C(=O)NC(=O)NC1=O (configuration not stated)
## Output 0.0147

## Input Determine from records and report maximum recommended daily dose (mmol/kg-bw/day) for C=CCC1(C(C)CC)C(=O)NC(=O)NC1=O (configuration not stated)
## Output 0.0148

## Input Determine from records and report maximum recommended daily dose (mmol/kg-bw/day) for CCC1(CC)C(=O)NCC(C)C1=O (configuration not stated)
## Output 0.0364

For the next question, use this compound.
## Input Determine from records and report maximum recommended daily dose (mmol/kg-bw/day) for CCC(Br)(CC)C(=O)NC(N)=O
## Output 0.0704

###

# Test system: human maximum recommended daily dose, FDA database
# ASSAY: DSSTox (FDAMDD) FDA Maximum (Recommended) Daily Dose Database
# EXPERIMENTAL_CONDITIONS: TherapeuticCategory: antineoplastic; stronger effect = lower value
Starred links: 1 amine or outer side, 2 acyl side, 3 side chain; linkers in the order of their positions; H or OH if unused. Positions of bridges follow the written chain, without caps; N, C: chain ends. Non-standard residues stand in square brackets, D forms with d. Residues, ends and D or L forms follow the SMILES beside them. Chains are numbered I, II in the order given. Actinocin(9to1) = Cc1c2oc3c(C)ccc(C(=O)[*:1])c3nc-2c(C(=O)[*:2])c(N)c1=O; NMeV = CN[C@H](C(=O)O)C(C)C; Sar = CNCC(=O)O
What maximum recommended daily dose (mmol/kg-bw/day) was measured for each of the following?

## Input Determine from records and report maximum recommended daily dose (mmol/kg-bw/day) for CN(C)/N=N/c1nc[nH]c1C(N)=O
## Output 0.0247

## Input Determine from records and report maximum recommended daily dose (mmol/kg-bw/day) for CC[C@@]1(O)C[C@H](O[C@H]2C[C@H](N(C)C)[C@H](O[C@H]3C[C@H](O)[C@H](O[C@H]4CCC(=O)[C@H](C)O4)[C@H](C)O3)[C@H](C)O2)c2c(cc3c(c2O)C(=O)c2c(O)cccc2C3=O)[C@H]1C(=O)OC
## Output 0.00333

## Input Determine from records and report maximum recommended daily dose (mmol/kg-bw/day) for Cc1c2oc3c(C)ccc(C(=O)N[C@@H]4C(=O)N[C@H](C(C)C)C(=O)N5CCC[C@H]5C(=O)N(C)CC(=O)N(C)[C@@H](C(C)C)C(=O)O[C@@H]4C)c3nc-2c(C(=O)N[C@@H]2C(=O)N[C@H](C(C)C)C(=O)N3CCC[C@H]3C(=O)N(C)CC(=O)N(C)[C@@H](C(C)C)C(=O)O[C@@H]2C)c(N)c1=O (I: T[dV]P[Sar][NMeV] / II: T[dV]P[Sar][NMeV]; ester I:1-I:C, II:1-II:C; linker I:N-II:N via Actinocin(9to1))
## Output 1.19e-05

## Input Determine from records and report maximum recommended daily dose (mmol/kg-bw/day) for COc1cc([C@@H]2c3cc4c(cc3C(O[C@@H]3O[C@@H]5COC(c6cccs6)O[C@H]5[C@H](O)[C@H]3O)C3COC(=O)[C@@H]32)OCO4)cc(OC)c1O (some centres not stated)
## Output 0.0107

## Input Determine from records and report maximum recommended daily dose (mmol/kg-bw/day) for COc1cccc2c1C(=O)c1c(O)c3c(c(O)c1C2=O)C[C@@](O)(C(C)=O)C[C@@H]3O[C@H]1C[C@H](N)[C@H](O)[C@H](C)O1
## Output 0.00205

## Input Determine from records and report maximum recommended daily dose (mmol/kg-bw/day) for N=c1ccn2c(n1)O[C@H]1[C@H](O)[C@@H](CO)O[C@H]12
## Output 0.0888

## Input Determine from records and report maximum recommended daily dose (mmol/kg-bw/day) for O=NN(CCCl)C(=O)N[C@@H]1[C@@H](O)[C@H](O)[C@@H](CO)O[C@@H]1O
## Output 0.0129

## Input Determine from records and report maximum recommended daily dose (mmol/kg-bw/day) for CCC(=O)O[C@H]1CC[C@H]2[C@@H]3CC[C@H]4CC(=O)[C@H](C)C[C@]4(C)[C@H]3CC[C@]12C
## Output 0.00463

## Input Determine from records and report maximum recommended daily dose (mmol/kg-bw/day) for O=c1[nH]cc(F)c(=O)[nH]1
## Output 0.0923

## Input Determine from records and report maximum recommended daily dose (mmol/kg-bw/day) for S=c1nc[nH]c2nc[nH]c12
## Output 0.0164

Provide maximum recommended daily dose (mmol/kg-bw/day) for all items below, preserving their order.
1. COc1cc(NCc2ccc3nc(N)nc(N)c3c2C)cc(OC)c1OC
2. O=c1[nH]c(=O)n(C2CCCO2)cc1F (configuration not stated) (tested in a mixture with another compound)

## Output
1: 0.0033; 2: 0.0641
